Test: Stability in human liver microsomes at […] at pH 7.4
Assay type: ADME, Microsome
Settings: read-out: Stability
I'd appreciate it if you marked entries 1 when remaining is lower than 80% and -1 when it is not.

compound	assignedCategory
CC(=O)CC(c1ccccc1)c1c(O)c2ccccc2oc1=O (stereo not given)	-1
C[C@]12CC[C@H]3[C@@H](CCC4=CC(=O)CC[C@@]43C)[C@@H]1CC[C@@H]2O	1
CC(C)NCC(O)COc1cccc2ccccc12 (stereo not given)	1
C[C@@H](O)CCCCOc1nn(CCCC[C@@H](C)O)c(=O)c2ccccc12	1

* * *

Assay: Half life in human liver
Format: ADME, organism-based
assayReadout: half-life

1. C[C@@H](O)CCCCn1c(=O)c2c(ncn2C)n(C)c1=O < 3 min
